system: erythrocytic forms of P. falciparum (strain 3D7); assay: Viability screening of antiplasmodial activity (SYBR-gold DNA quantification, 96 h); assay type: cell-based, Plasmodium falciparum; settings: Plasmodium falciparum, 96 h; 3 µM; strain 3D7; calculated on DMSO controls; read-out: Parasitemia (3D7) at 3 µM [%]
metric_name: activity at 3 µM
Could you write the number and then its unit?

# example entries with known answers
INSERT INTO results (compound, metric_name, assay_result) VALUES
  ('N#Cc1c(N)nc2sc(C(=O)Nc3ccc(Cl)cc3)c(N)c2c1-c1ccc(N2CCOCC2)cc1Cl', 'activity at 3 µM', '6.2%'),
  ('CC(C)(C)OC(=O)N1CCN(c2ccc(-c3c(C#N)c(N)nc4sc(C(=O)Nc5cccc(Cl)c5)c(N)c34)c(Cl)c2)CC1', 'activity at 3 µM', '5.4%'),
  ('N#Cc1c(N)nc2sc(C(=O)Nc3ccccc3Cl)c(N)c2c1-c1ccc(N2CCOCC2)cc1Cl', 'activity at 3 µM', '53.1%'),
  ('Cc1cccc(-c2c(C#N)c(N)nc3sc(C(=O)NC4CC4)c(N)c23)c1', 'activity at 3 µM', '88%'),
  ('Cc1cccc(-c2c(C#N)c(N)nc3sc(C(=O)Nc4ccc(F)cc4)c(N)c23)c1', 'activity at 3 µM', '3.1%');

Kindly review the next compound as well.
# input Could you share which activity at 3 µM value was measured for Nc1c(C(=O)Nc2ccc(Cl)cc2)sc2nc3c(c(-c4ccccc4)c12)CCCC3 [Compound 17d] ?
# output 8.4%

* * *

experiment: in vitro; type: cell-based, human; settings: human, HEK293T Viability at 30 µM [%]
metric_name: viability at 48 h, 30 µM

# example entries with known answers
INSERT INTO measurements (compound, assay_result) VALUES
  ('N#Cc1c(N)nc2sc(C(=O)Nc3ccc(F)cc3)c(N)c2c1-c1cccc(Cl)c1 [Compound 9d]', '83%'),
  ('CC(C)(C)OC(=O)N1CCN(c2ccc(-c3c4c(nc5sc(C(=O)Nc6ccc(Cl)cc6)c(N)c35)CCC4)c(Cl)c2)CC1 [Compound 17a]', '93.9%'),
  ('Cc1cccc(-c2c(C(=O)OC(C)(C)C)c(C)nc3sc(C(=O)Nc4ccc(Cl)cc4)c(N)c23)c1 [Compound 17h]', '< 50%');

Kindly review the next compound as well.
# input Could you share which viability at 48 h, 30 µM value was measured for CN(CCNC(=O)OC(C)(C)C)c1ccc(-c2c(C#N)c(N)nc3sc(C(=O)Nc4cccc(Cl)c4)c(N)c23)c(Cl)c1 [Compound 9w] ?
# output 76.1%

* * *

pIC50: recorded values
tested on: erythrocytic forms of P. falciparum (strain 3D7); assay: Viability screening of antiplasmodial activity (SYBR-gold DNA quantification, 96 h); assay type: cell-based, Plasmodium falciparum; conditions: Plasmodium falciparum, 3D7, strain 3D7, erythrocytic forms
Value format note: pIC50 is -log10 of concentration (mol/L); just state the number.

INSERT INTO assay_data (compound, assay_result) VALUES
  ('Nc1c(C(=O)Nc2ccc(Cl)cc2)sc2nc3c(c(-c4ccccc4)c12)CCC3 [Compound 17b]', 6.72),
  ('CN(CCNC(=O)OC(C)(C)C)c1ccc(-c2c(C#N)c(N)nc3sc(C(=O)Nc4cccc(Cl)c4)c(N)c23)c(Cl)c1', 6.07);

# input Could you share which pIC50 value was measured for Nc1c(C(=O)Nc2ccc(F)cc2)sc2nc3c(c(-c4ccccc4)c12)CCC3 [Compound 17c] ?
# output 7.15
